test: Aqueous solubility of the compound in phosphate buffer at pH 7.4 incubated for 24 hrs by LC/MS/MS method; format: physicochemical
Entries annotated with measured solubility at 24 h

Line notation | solubility at 24 h
CC(=O)Nc1cc(Nc2cc(NC3CC3)n3ncc(C#N)c3n2)ccc1N(C)CCCN(C)C | > 1000 µM
CCN(CCN)c1ccc(Nc2cc(NC3CC3)n3ncc(C#N)c3n2)cc1NC(C)=O | > 1000 µM
CC(=O)Nc1cc(Nc2cc(NC3CC3)n3ncc(C#N)c3n2)ccc1N1CCC[C@@H](N(C)C)C1 | > 900 µM
CC(=O)Nc1cc(Nc2cc(NC3CC3)n3ncc(C#N)c3n2)ccc1N1CCC[C@@H](N)C1 | > 1000 µM
CC(=O)Nc1cc(Nc2cc(NC3CC3)n3ncc(C#N)c3n2)ccc1N(C)CCN(C)C | > 1000 µM
CCN(CC)CCN(C)c1ccc(Nc2cc(NC3CC3)n3ncc(C#N)c3n2)cc1NC(C)=O | > 1000 µM
CC(=O)Nc1cc(Nc2cc(NC3CC3)n3ncc(C#N)c3n2)ccc1N1CC[C@H](N(C)C)C1 | > 800 µM
CC(=O)Nc1cc(Nc2cc(NC3CC3)n3ncc(C#N)c3n2)ccc1N(C)CCN | > 1000 µM

* * *

test: Intrinsic clearance in human liver microsomes; format: ADME; conditions: read-out: CLH
Recorded metric: microsomal CLint

Line notation | Recorded metric | Result
CC(=O)Nc1cc(Nc2cc(NC3CC3)n3ncc(C#N)c3n2)ccc1N(C)C[C@H](C)N | microsomal CLint | < 3 µL/min/mg
CC(=O)Nc1cc(Nc2cc(NC3CC3)n3ncc(C#N)c3n2)ccc1N1CCC[C@@H](N)C1 | microsomal CLint | < 3 µL/min/mg
CC(=O)Nc1cc(Nc2cc(NC3CC3)n3ncc(C#N)c3n2)ccc1N1CCN(C)CC1 | microsomal CLint | < 4 µL/min/mg
CC(=O)Nc1cc(Nc2cc(NC3CC3)n3ncc(C#N)c3n2)ccc1N(C)C[C@@H](C)N | microsomal CLint | < 3 µL/min/mg
CC(=O)Nc1cc(Nc2cc(NC3CC3)n3ncc(C#N)c3n2)ccc1N(C)CCCN(C)C | microsomal CLint | < 4 µL/min/mg
CC(=O)Nc1cc(Nc2cc(NC3CC3)n3ncc(C#N)c3n2)ccc1N1CC[C@H](N)C1 | microsomal CLint | < 3 µL/min/mg
CC(=O)Nc1cc(Nc2cc(NC3CC3)n3ncc(C#N)c3n2)ccc1N1CCC[C@H](N)C1 | microsomal CLint | < 3 µL/min/mg
CC(=O)Nc1cc(Nc2cc(NC3CC3)n3ncc(C#N)c3n2)ccc1N1CC[C@@H](N)C1 | microsomal CLint | < 3 µL/min/mg

* * *

experiment: Intrinsic clearance in rat hepatocyte assessed per 10^6 cells; format: ADME, cell-based; details: hepatocytes, read-out: CLH

Line notation | hepatocyte CLint
CC(=O)Nc1cc(Nc2cc(NC3CC3)n3ncc(C#N)c3n2)ccc1N(C)C[C@H](C)N | < 1 µL/min/1e6 cells
CC(=O)Nc1cc(Nc2cc(NC3CC3)n3ncc(C#N)c3n2)ccc1N1CCC[C@@H](N(C)C)C1 | < 1 µL/min/1e6 cells
CC(=O)Nc1cc(Nc2cc(NC3CC3)n3ncc(C#N)c3n2)ccc1N1CC[C@H](N)C1 | < 1 µL/min/1e6 cells
CC(=O)Nc1cc(Nc2cc(NC3CC3)n3ncc(C#N)c3n2)ccc1N(C)C[C@@H](C)N | < 1 µL/min/1e6 cells
CC(=O)Nc1cc(Nc2cc(NC3CC3)n3ncc(C#N)c3n2)ccc1N1CCC[C@@H](N)C1 | < 1 µL/min/1e6 cells
CC(=O)Nc1cc(Nc2cc(NC3CC3)n3ncc(C#N)c3n2)ccc1N(C)CCN1CCOCC1 | > 300 µL/min/1e6 cells
CC(=O)Nc1cc(Nc2cc(NC3CC3)n3ncc(C#N)c3n2)ccc1N1CCC[C@H](N)C1 | < 1 µL/min/1e6 cells

The measured values listed here are drawn from ChEMBL document CHEMBL3808365.
